Hi there, I'd appreciate the recorded pIC50 for every entry that follows.
Test: Inhibition of N-terminal MBP tagged and C-terminal 6x-His-tagged ANAT (unknown origin) expressed in Escherichia coli BL21(DE3) assessed as reduction in coenzyme A production using DTNB incubated up to 30 mins in presence of 0.1%Triton X-100
Parameters: species or system Homo sapiens
Give bare numbers, as −log10 of the molar value.

Below, 3 compounds whose answers are already recorded.
CCOC(=O)c1sc(NC(=O)COC(=O)Cn2c(=O)cnc3ccccc32)cc1C: 5.21
Nc1cc(N)nc(SCc2ncc(-c3ccc(F)cc3)o2)n1: 5.32
Cc1nnc(SCc2nnc(-c3c(-c4ccccc4)noc3C)o2)s1: 5.57

Okay, now this compound:
q: Give the measured pIC50 of `Cc1c(C(=O)O)sc2[nH]c(=O)cc(CSc3nnc(C4CC4)[nH]3)c12` .
a: 5.90

Just for reference, ChEMBL document CHEMBL4725362 is where these values come from.
